# target entity: PHD2181-417 (Homo sapiens (Human), UniProt Q9GZT9)
# Sequence (Q9GZT9 181-417): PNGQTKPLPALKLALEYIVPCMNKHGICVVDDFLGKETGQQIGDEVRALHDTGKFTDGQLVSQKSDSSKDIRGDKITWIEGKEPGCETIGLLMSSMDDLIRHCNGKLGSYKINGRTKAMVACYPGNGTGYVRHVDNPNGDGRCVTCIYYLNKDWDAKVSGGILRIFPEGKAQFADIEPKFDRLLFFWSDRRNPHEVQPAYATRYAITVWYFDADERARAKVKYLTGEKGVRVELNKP
# assay notes: PHD enzymatic assay ([14C]-succinic acid production)
# Format: biochemical
# condition summary: purified PHD2181-417, HIF-1α peptide substrate, 30 min pre-incubation; average of results
assay endpoint: Enzyme pIC50

structure notation	Enzyme pIC50
N#CNc1nc(-n2cc(C(=O)O)cn2)nc2ccc(-c3ccccc3)cc12	7.1
CCN(CC)c1nc(-n2cc(C(=O)O)cn2)nc2ccc(Oc3ccccc3)cc12	7.3
CCN(CC)c1nc(-n2cc(C(=O)O)cn2)nc2ccc(-c3ccccc3)cc12	7.4
COCCN(C)c1nc(-n2cc(C(=O)O)cn2)nc2cc(Oc3ccccc3)ccc12	6.8
N#CC1CCN(c2nc(-n3cc(C(=O)O)cn3)nc3ccc(-c4ccccc4)cc23)CC1	6.4
O=C(O)c1cnn(-c2nc(N3CCCCCC3)c3cc(-c4ccccc4)ccc3n2)c1	7.2
CN(C)c1nc(-n2cc(C(=O)O)cn2)nc2cc(Oc3ccccc3)ccc12	7.4
CN(C)c1nc(-n2cc(C(=O)O)cn2)nc2ccc(Cc3ccccc3)cc12	7.1

* * *

# target entity: PHD2181-417 (Homo sapiens (Human), UniProt Q9GZT9)
# assay notes: PHD enzymatic assay ([14C]-succinic acid production)
# Type: biochemical
# condition summary: purified PHD2181-417, HIF-1α peptide substrate, 30 min pre-incubation; average of results
assay endpoint: Enzyme pIC50

compound	Enzyme pIC50
Cc1cccc(C)c1Oc1cc2c(NCC3CCCCC3)nc(-n3cc(C(=O)O)cn3)nc2cc1F [Example 13]	6.9
CCN(CC)c1nc(-n2cc(C(=O)O)cn2)nc2cc(Cl)c(OC3CCCCC3)cc12 [Example 138]	7.5
CC(C)(C)Nc1nc(-n2cc(C(=O)O)cn2)nc2ccc(Oc3ccccc3)cc12 [Example 72]	6.7
O=C(O)c1cnn(-c2nc(N3CCC(F)CC3)c3cc(C4CCCCC4)ccc3n2)c1 [Example 31]	7.1

* * *

# Test system: Erythropoietin secretion, Hep-3B cells
# assay notes: Cellular assay: EPO secretion in Hep-3B cells
# Type: cell-based
# condition summary: Homo sapiens, Hep3B, 100 μM compound, 24 hours, percent of EPO secretion relative to assay control compound 7-[(4-Chloro-phenyl)-(5-methyl-isoxazol-3-ylamino)-methyl]-quinolin-8-ol, read-out: Cellular % EPO Stimulation
# Procedure: Hep-3B cells (ATCC, Manassas, Va.) were plated in 96-well plates at 20,000 cells per well in 100 μl of DMEM containing 10% fetal bovine serum, 1% non-essential amino acids, 50 IU/mL of penicillin and 50 μg/mL of streptomycin (all cell culture reagents from Invitrogen, Carlsbad, Calif.). Twenty-four hours after plating, compounds were added and incubated for an additional 24 hours. […] Erythropoietin in the supernatant was detected according to the manufacturer's instructions as follows. […]
Recorded measurements of activation at 100 µM, one per entry
Express the result in % but write the number alone.

Examples from the recorded data:
structure notation	assay endpoint	assay value
O=C(O)c1cnn(-c2nc(N3CCSCC3)c3cc(C4CCCCC4)ccc3n2)c1	activation at 100 µM	20
CCCNc1nc(-n2cc(C(=O)O)cn2)nc2cc(F)c(Oc3c(C)cccc3C)cc12	activation at 100 µM	59
Cc1cccc(C)c1Oc1cc2c(N(C)C)nc(-n3cc(C(=O)O)cn3)nc2cc1F	activation at 100 µM	68

Value of activation at 100 µM reported for the compound "O=C(O)c1cnn(-c2nc(NC3CC3)c3cc(OC4CCCCC4)ccc3n2)c1" is 35

"CCN(C)c1nc(-n2cc(C(=O)O)cn2)nc2cc(F)c(OC3CCCCC3)cc12" yielded activation at 100 µM of 49

So, "O=C(O)c1cnn(-c2nc(Nc3ccccc3)c3cc(Oc4ccc(Cl)cc4)ccc3n2)c1" ? Its activation at 100 µM was 23

The reported activation at 100 µM of the compound "CN(C)c1nc(-n2cc(C(=O)O)cn2)nc2cc(F)c(OC3CCCCC3)cc12" was 85

The measured activation at 100 µM associated with "CCN(C)c1nc(-n2cc(C(=O)O)cn2)nc2cc(Cl)c(OC3CCCCC3)cc12" reads 29

Reported activation at 100 µM ( "O=C(O)c1cnn(-c2nc(Nc3ccccc3)c3cc(C4CCCCC4)ccc3n2)c1" ) = 31

// sample "CNc1nc(-n2cc(C(=O)O)cn2)nc2cc(F)c(Oc3c(C)cccc3C)cc12" , its activation at 100 µM was 10
